Listing: TGI of selected molecules
Test system: RXF 393 renal
Experiment: NCI tumour cell line growth inhibition, 48 h
Metric name: TGI

Molecule: c1ccc2c(c1)[I+]c1ccccc1-2
Value: > 50 µM
--
Molecule: NC(=O)COc1ccccc1
Value: > 100 µM
--
Molecule: CCCC(=O)c1c(NOC2OC(COC(C)=O)C(OC(C)=O)C(OC(C)=O)C2OC(C)=O)nc(OC)n(C)c1=O (stereo not drawn)
Value: > 100 µM
--
Molecule: CCN(CC)c1ccc(N=Nc2ccc(-c3nc4cccnc4o3)cc2)cc1
Value: > 100 µM
--
Molecule: CC1(C)C2CC(c3ccncc3)ON2C(C)(C)N1O (stereo not drawn)
Value: > 100 µM
--
Molecule: O=C(Nc1cccc(-c2cn3ccccc3n2)c1)c1ccncc1
Value: > 100 µM
--
Molecule: NC(CCCCNC(=O)OCc1ccccc1)C(=O)NC(CCCCNC(=O)OCc1ccccc1)C(=O)ON1C(=O)CCC1=O (stereo not drawn)
Value: > 100 µM
--
Molecule: COC(OC)C(O)C1OC=CC1n1cnc2c(N)ncnc21 (stereo not drawn)
Value: > 100 µM
--
Molecule: CCOC(=O)C(C)(C)Oc1ccc2c(=O)cc(-c3ccc(Cl)cc3)oc2c1
Value: > 100 µM
--
Molecule: CN1C2CC(=O)CC1[C@@H]1OC(c3ccccc3)O[C@H]21 (stereo partly drawn)
Value: > 100 µM
--
Molecule: CN(C(=O)c1ccc(Cl)s1)C(=S)N(C)C(=O)c1ccc(Cl)s1
Value: > 10 µM
--
Molecule: COc1ccc(-c2c(C3=NCCN3)nnn2-c2ccccc2)cc1
Value: > 100 µM
--
Molecule: CCCCSc1n/c(=C\c2ccc(N(C)C)cc2)c2nnnn12
Value: > 100 µM
